Test system: Aspergillus parasiticus
Protocol details: Antimicrobial activity against Aspergillus parasiticus NRRL 465 after 48 to 72 hrs by microbroth dilution method
Type: functional
Collected MIC values appear next to each entry.

| Compound structure | MIC (µg/mL) |
| --- | --- |
| COc1ccc(-c2cs/c(=N/NC(=O)CSc3nncn3C)n2-c2ccccc2)cc1 | 250 |
| Cc1ccc(-c2cs/c(=N/NC(=O)CSc3ncccn3)n2-c2ccccc2)cc1 | 250 |
| Cn1cnnc1SCC(=O)N/N=c1/scc(-c2ccc(Cl)cc2)n1-c1ccccc1 | 250 |

====

Test system: Aspergillus parasiticus
Protocol details: Antimicrobial activity against Aspergillus parasiticus NRRL 465 after 48 to 72 hrs by microbroth dilution method
Type: functional

| Compound structure | MIC (µg/mL) |
| --- | --- |
| Cc1nnc(SCC(=O)N/N=c2/scc(-c3ccccc3)n2-c2ccccc2)s1 | 250 |
| Cc1nnc(SCC(=O)N/N=c2/scc(-c3ccc(Br)cc3)n2-c2ccccc2)s1 | 250 |
| Cc1nnc(SCC(=O)N/N=c2/scc(-c3ccc(C#N)cc3)n2-c2ccccc2)s1 | 250 |
| O=C(CSc1nnnn1-c1ccccc1)N/N=c1/scc(-c2ccc(F)cc2)n1-c1ccccc1 | 250 |
| Cn1cnnc1SCC(=O)N/N=c1/scc(-c2ccc(F)cc2)n1-c1ccccc1 | 250 |

====

Test system: Aspergillus parasiticus
Protocol details: Antimicrobial activity against Aspergillus parasiticus NRRL 465 after 48 to 72 hrs by microbroth dilution method
Type: functional
Property measured: MIC

| Compound structure | Result |
| --- | --- |
| Cc1ccc(-c2cs/c(=N/NC(=O)CSc3nnnn3C)n2-c2ccccc2)cc1 | 250 µg/mL |
| COc1ccc(-c2cs/c(=N/NC(=O)CSc3nnnn3C)n2-c2ccccc2)cc1 | 250 µg/mL |
| N#Cc1ccc(-c2cs/c(=N/NC(=O)CSc3ncccn3)n2-c2ccccc2)cc1 | 250 µg/mL |
| COc1ccc(-c2cs/c(=N/NC(=O)CSc3ncccn3)n2-c2ccccc2)cc1 | 250 µg/mL |
| O=C(CSc1ncccn1)N/N=c1/scc(-c2ccccc2)n1-c1ccccc1 | 250 µg/mL |

====

System: NIH3T3
Protocol details: Cytotoxicity against mouse NIH/3T3 cells after 24 hrs by MTT assay
Format: cell-based
Test parameters: NIH3T3, 24 h
Binning scheme for IC50: LOW (below 100 µg/mL), MID (100 µg/mL to below 200 µg/mL), HIGH (200 µg/mL or more)

| Compound structure | Assayed system | Assigned category |
| --- | --- | --- |
| O=C(CSc1ncccn1)N/N=c1/scc(-c2ccc(Cl)cc2)n1-c1ccccc1 | NIH3T3 | HIGH |
| O=C(CSc1nnnn1-c1ccccc1)N/N=c1/scc(-c2ccc([N+](=O)[O-])cc2)n1-c1ccccc1 | NIH3T3 | LOW |
| Cn1nnnc1SCC(=O)N/N=c1/scc(-c2ccc([N+](=O)[O-])cc2)n1-c1ccccc1 | NIH3T3 | MID |
| Cn1nnnc1SCC(=O)N/N=c1/scc(-c2ccc(Br)cc2)n1-c1ccccc1 | NIH3T3 | LOW |
| Cn1cnnc1SCC(=O)N/N=c1/scc(-c2ccc(C#N)cc2)n1-c1ccccc1 | NIH3T3 | MID |
| Cc1nnc(SCC(=O)N/N=c2/scc(-c3ccc(F)cc3)n2-c2ccccc2)s1 | NIH3T3 | HIGH |
| O=C(CSc1nnnn1-c1ccccc1)N/N=c1/scc(-c2ccc(Br)cc2)n1-c1ccccc1 | NIH3T3 | HIGH |
| Cc1nnc(SCC(=O)N/N=c2/scc(-c3ccc(Br)cc3)n2-c2ccccc2)s1 | NIH3T3 | LOW |
| O=C(CSc1ncccn1)N/N=c1/scc(-c2ccc(Br)cc2)n1-c1ccccc1 | NIH3T3 | HIGH |
| Cc1ccc(-c2cs/c(=N/NC(=O)CSc3nnc(C)s3)n2-c2ccccc2)cc1 | NIH3T3 | HIGH |
| Cn1cnnc1SCC(=O)N/N=c1/scc(-c2ccc(Cl)cc2)n1-c1ccccc1 | NIH3T3 | LOW |
| Cn1nnnc1SCC(=O)N/N=c1/scc(-c2ccc(F)cc2)n1-c1ccccc1 | NIH3T3 | MID |
| Cn1cnnc1SCC(=O)N/N=c1/scc(-c2ccc(F)cc2)n1-c1ccccc1 | NIH3T3 | LOW |
| Cn1cnnc1SCC(=O)N/N=c1/scc(-c2ccc(Br)cc2)n1-c1ccccc1 | NIH3T3 | LOW |
| Cn1cnnc1SCC(=O)N/N=c1/scc(-c2ccccc2)n1-c1ccccc1 | NIH3T3 | HIGH |
| O=C(CSc1nnnn1-c1ccccc1)N/N=c1/scc(-c2ccc(F)cc2)n1-c1ccccc1 | NIH3T3 | HIGH |
| O=C(CSc1nnnn1-c1ccccc1)N/N=c1/scc(-c2ccccc2)n1-c1ccccc1 | NIH3T3 | HIGH |
| Cc1ccc(-c2cs/c(=N/NC(=O)CSc3ncccn3)n2-c2ccccc2)cc1 | NIH3T3 | HIGH |
| Cc1ccc(-c2cs/c(=N/NC(=O)CSc3nnnn3C)n2-c2ccccc2)cc1 | NIH3T3 | HIGH |

====

System: NIH3T3
Protocol details: Cytotoxicity against mouse NIH/3T3 cells after 24 hrs by MTT assay
Format: cell-based
Test parameters: NIH3T3, 24 h
Binning scheme for IC50: band 1: < 100 µg/mL; band 2: ≥ 100 µg/mL and < 200 µg/mL; band 3: ≥ 200 µg/mL

| Compound structure | Assigned category |
| --- | --- |
| Cc1nnc(SCC(=O)N/N=c2/scc(-c3ccc(Cl)cc3)n2-c2ccccc2)s1 | band 3 |
| O=C(CSc1ncccn1)N/N=c1/scc(-c2ccccc2)n1-c1ccccc1 | band 2 |
| Cn1nnnc1SCC(=O)N/N=c1/scc(-c2ccc(Cl)cc2)n1-c1ccccc1 | band 1 |
| N#Cc1ccc(-c2cs/c(=N/NC(=O)CSc3ncccn3)n2-c2ccccc2)cc1 | band 1 |
| Cc1nnc(SCC(=O)N/N=c2/scc(-c3ccc(C#N)cc3)n2-c2ccccc2)s1 | band 1 |
| COc1ccc(-c2cs/c(=N/NC(=O)CSc3nncn3C)n2-c2ccccc2)cc1 | band 2 |
| Cn1nnnc1SCC(=O)N/N=c1/scc(-c2ccc(C#N)cc2)n1-c1ccccc1 | band 3 |
| O=C(CSc1nnnn1-c1ccccc1)N/N=c1/scc(-c2ccc(Cl)cc2)n1-c1ccccc1 | band 3 |
| Cc1ccc(-c2cs/c(=N/NC(=O)CSc3nnnn3-c3ccccc3)n2-c2ccccc2)cc1 | band 3 |
| Cn1cnnc1SCC(=O)N/N=c1/scc(-c2ccc([N+](=O)[O-])cc2)n1-c1ccccc1 | band 2 |
| Cn1nnnc1SCC(=O)N/N=c1/scc(-c2ccccc2)n1-c1ccccc1 | band 2 |
| O=C(CSc1ncccn1)N/N=c1/scc(-c2ccc(F)cc2)n1-c1ccccc1 | band 3 |
| COc1ccc(-c2cs/c(=N/NC(=O)CSc3nnnn3-c3ccccc3)n2-c2ccccc2)cc1 | band 1 |
| COc1ccc(-c2cs/c(=N/NC(=O)CSc3nnnn3C)n2-c2ccccc2)cc1 | band 1 |
| COc1ccc(-c2cs/c(=N/NC(=O)CSc3ncccn3)n2-c2ccccc2)cc1 | band 3 |
| N#Cc1ccc(-c2cs/c(=N/NC(=O)CSc3nnnn3-c3ccccc3)n2-c2ccccc2)cc1 | band 3 |
| Cc1ccc(-c2cs/c(=N/NC(=O)CSc3nncn3C)n2-c2ccccc2)cc1 | band 2 |
| COc1ccc(-c2cs/c(=N/NC(=O)CSc3nnc(C)s3)n2-c2ccccc2)cc1 | band 3 |
| O=C(CSc1ncccn1)N/N=c1/scc(-c2ccc([N+](=O)[O-])cc2)n1-c1ccccc1 | band 2 |
| Cc1nnc(SCC(=O)N/N=c2/scc(-c3ccc([N+](=O)[O-])cc3)n2-c2ccccc2)s1 | band 2 |

====

Test system: Trichoderma harzianum
Protocol details: Antimicrobial activity against Trichoderma harzianum NRRL 20565 after 48 to 72 hrs by microbroth dilution method
Assay type: functional
Property measured: MIC (µg/mL)

| Molecule | Property measured | Quantity unit | Number |
| --- | --- | --- | --- |
| O=C(CSc1nnnn1-c1ccccc1)N/N=c1/scc(-c2ccc(Br)cc2)n1-c1ccccc1 | MIC | µg/mL | 125 |
| COc1ccc(-c2cs/c(=N/NC(=O)CSc3nnc(C)s3)n2-c2ccccc2)cc1 | MIC | µg/mL | 125 |
| Cn1nnnc1SCC(=O)N/N=c1/scc(-c2ccc(Br)cc2)n1-c1ccccc1 | MIC | µg/mL | 125 |
| Cc1ccc(-c2cs/c(=N/NC(=O)CSc3nnc(C)s3)n2-c2ccccc2)cc1 | MIC | µg/mL | 250 |
| COc1ccc(-c2cs/c(=N/NC(=O)CSc3nnnn3-c3ccccc3)n2-c2ccccc2)cc1 | MIC | µg/mL | 125 |
| CC(=O)N1CCN(c2ccc(OCC3COC(Cn4ccnc4)(c4ccc(Cl)cc4Cl)O3)cc2)CC1 (centres undefined) | MIC | µg/mL | 250 |
| COc1ccc(-c2cs/c(=N/NC(=O)CSc3nncn3C)n2-c2ccccc2)cc1 | MIC | µg/mL | 250 |
| O=C(CSc1nnnn1-c1ccccc1)N/N=c1/scc(-c2ccc(F)cc2)n1-c1ccccc1 | MIC | µg/mL | 125 |
| N#Cc1ccc(-c2cs/c(=N/NC(=O)CSc3nnnn3-c3ccccc3)n2-c2ccccc2)cc1 | MIC | µg/mL | 250 |
